# Tested on: influenza A virus (IAV) A/Aichi/2/68 (H3N2)
# procedureText: microbe, parasite or virus in culture
# Format: cell-based, influenza A virus in MDCK cells
# conditionNotes: Influenza A virus, H3N2, MDCK, 48 h, read-out: CPE IC50
observable: IC50

> print(dat)
                                    molecule       val
 1  COc1ccc(CCNC(=O)[C@H](NC(=O)c2c[nH]c3ncc(C4CC4)nc23)C2CC2)cc1  > 100 µM
 2   O=C(NCC(=O)N1CCCC1)c1c[nH]c2ncc(Br)nc12  > 100 µM
 3  O=C(N[C@@H](C(=O)N1CCC[C@@H](C(=O)N2CCOCC2)C1)C1CC1)c1c[nH]c2ncc(C3CC3)nc12  > 100 µM
 4  CC(C)c1cnc2[nH]cc(C(=O)NC3CCOC3(C)C)c2n1 (stereo not drawn)  > 100 µM
 5  O=C(N[C@@H](C(=O)Nc1ccccc1)C1CC1)c1c[nH]c2ncc(C3CC3)nc12  > 100 µM
 6  O=C(N[C@@H](C(=O)NCCc1ccc(Cl)cc1)C1CC1)c1c[nH]c2ncc(C3CC3)nc12  > 100 µM
 7  O=C(N[C@@H](C(=O)N1CC2(CCC2)C1)C1CC1)c1c[nH]c2ncc(C3CC3)nc12  > 100 µM
 8  O=C(N[C@@H](C(=O)N1CCCCC1)C1CC1)c1c[nH]c2ncc(C3CC3)nc12  > 100 µM
 9  O=C(N[C@@H](C(=O)N1CCC[C@H](C(=O)N2CCOCC2)C1)C1CC1)c1c[nH]c2ncc(C3CC3)nc12  > 100 µM
10  CC(C)C[C@@H](NC(=O)c1c[nH]c2ncc(C3CC3)nc12)C(=O)NCC(=O)NC1CCCC1  > 100 µM
11  O=C(N[C@@H](C(=O)N1CCC[C@@H](C(=O)N2CCCC2)C1)C1CC1)c1c[nH]c2ncc(C3CC3)nc12  > 100 µM
12  CC(C)C[C@@H](NC(=O)c1c[nH]c2ncc(C3CC3)nc12)C(=O)NCC(=O)NCc1ccccn1  > 100 µM
13  O=C(N[C@@H](C(=O)N1CCC[C@@H](C(=O)N2CCCCC2)C1)C1CC1)c1c[nH]c2ncc(C3CC3)nc12  > 100 µM
14  O=C(N[C@@H](C(=O)N1CCC[C@H](C(=O)N2CCCC2)C1)C1CC1)c1c[nH]c2ncc(C3CC3)nc12  > 100 µM
15  COC(=O)C1CC2(CC(NC(=O)[C@@H](CC(C)C)NC(=O)c3c[nH]c4ncc(C5CC5)nc34)C2)C1 (stereo partly drawn)  > 100 µM
16  CC(C)C[C@@H](NC(=O)c1c[nH]c2ncc(C3CC3)nc12)C(=O)NCCC(=O)NC1CCCC1  > 100 µM
17  O=C(N[C@@H](C(=O)NCC(=O)N1CCOCC1)C1CC1)c1c[nH]c2ncc(C3CC3)nc12  > 100 µM
18  CC(C)C[C@@H](NC(=O)c1c[nH]c2ncc(C3CC3)nc12)C(=O)N1CCCC1  > 100 µM
19  O=C(N[C@H](C(=O)N1CCCC1)C1CC1)c1c[nH]c2ncc(C3CC3)nc12   > 25 µM
20  O=C(N[C@@H](C(=O)N1CC2(COC2)C1)C1CC1)c1c[nH]c2ncc(C3CC3)nc12  > 100 µM
21  CC(C)c1cnc2[nH]cc(C(=O)N3CCC(F)(F)CC3)c2n1  > 100 µM
